# studyTarget: T1, native human ApoC3 (human, UniProt P02656 21-99, biotinylated in the captured-antigen assays (Tables 6 and 8); sites not stated)
# T1 construct: also called nhuApoC3; native huApoC3
# T1 sequence (P02656 21-99): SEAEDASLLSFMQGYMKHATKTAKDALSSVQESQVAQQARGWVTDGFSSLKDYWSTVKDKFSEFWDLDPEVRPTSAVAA
# assay: SPR, biotinylated antigen captured on SA chip, scFv periplasmic extract injected, pH 7.4
readout: koff (s⁻¹)
Numbers only, in s⁻¹.

Below, each entry is followed by its recorded koff result.
binder	readout	unitTag	experimentalValue
29A06 scFv (scFv, part only; not given: scFv linker, domain order, c-myc tag, V domains shown, not shown: another chain or arm of the molecule; small tags and cut ends) VH: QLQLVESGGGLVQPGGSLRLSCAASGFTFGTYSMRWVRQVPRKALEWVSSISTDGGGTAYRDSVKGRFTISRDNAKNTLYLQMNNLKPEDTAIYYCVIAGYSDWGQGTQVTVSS VL: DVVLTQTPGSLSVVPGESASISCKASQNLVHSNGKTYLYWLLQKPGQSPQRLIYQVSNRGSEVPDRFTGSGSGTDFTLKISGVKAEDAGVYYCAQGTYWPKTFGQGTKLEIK	koff	s⁻¹	0.00162
29F10 scFv (scFv, part only; not given: scFv linker, domain order, c-myc tag, V domains shown, not shown: another chain or arm of the molecule; large carriers; small tags and cut ends) VH: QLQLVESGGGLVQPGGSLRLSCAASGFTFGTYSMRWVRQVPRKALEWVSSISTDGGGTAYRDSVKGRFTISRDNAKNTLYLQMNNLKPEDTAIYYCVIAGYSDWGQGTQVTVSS VL: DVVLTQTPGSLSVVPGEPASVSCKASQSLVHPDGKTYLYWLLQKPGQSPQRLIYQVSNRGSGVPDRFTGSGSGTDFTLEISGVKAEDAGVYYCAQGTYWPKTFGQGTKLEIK	koff	s⁻¹	0.00144

We next turn to a different binder, shown below.
Incoming: Could you share which koff value was measured for 29G11 scFv (scFv, part only; not given: scFv linker, domain order, c-myc tag, V domains shown, not shown: another chain or arm of the molecule; small tags and cut ends) VH: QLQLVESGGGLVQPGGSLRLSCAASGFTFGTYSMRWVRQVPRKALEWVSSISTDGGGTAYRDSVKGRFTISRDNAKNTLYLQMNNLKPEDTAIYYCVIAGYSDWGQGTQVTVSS VL: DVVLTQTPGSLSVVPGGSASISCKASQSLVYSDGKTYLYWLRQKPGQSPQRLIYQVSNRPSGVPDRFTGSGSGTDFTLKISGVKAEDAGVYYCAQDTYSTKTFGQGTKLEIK ?
Outgoing: 0.00633

The reported measurements were obtained from patent US20210347865A1.
